- System: SN12C
- Assay Remarks: NCI tumour cell line growth inhibition, 48 h
Calls of active or inactive are those of the source. No stated cut-off is given here; in the data, active = GI50 up to about 1.1 µM and inactive = higher.
Quantity: GI50

O=C1OC(c2ccccc2)=N/C1=C\c1ccc(Oc2ccc(Cl)c(Cl)c2)cc1	51.1 µM (inactive)
Oc1ccc(NCn2c(=S)sc3ccccc32)cc1	> 100 µM (inactive)
CN/C=C(/c1ccc(OC)cc1)C(O)c1ccc(OC)c(OC)c1 (centres undefined)	> 100 µM (inactive)

Q. What GI50 value was documented for this molecule, CC1(Cl)CC2OC3(Br)C=CC(C)(O)C2(CC1Br)C3(C)C (centres undefined) ?
A. > 100 µM (inactive)

Q. Try the molecule COc1cc2c(c(OC)c1O)-c1ccc(SC)c(=O)cc1C(NC(C)=O)CC2 (centres undefined)
A. 0.0518 µM (active)

meta.source: ChEMBL document CHEMBL1201862
